# measuredOn: Sterol O-acyltransferase 1 (Chlorocebus aethiops)
# Sequence (O77760 whole entry): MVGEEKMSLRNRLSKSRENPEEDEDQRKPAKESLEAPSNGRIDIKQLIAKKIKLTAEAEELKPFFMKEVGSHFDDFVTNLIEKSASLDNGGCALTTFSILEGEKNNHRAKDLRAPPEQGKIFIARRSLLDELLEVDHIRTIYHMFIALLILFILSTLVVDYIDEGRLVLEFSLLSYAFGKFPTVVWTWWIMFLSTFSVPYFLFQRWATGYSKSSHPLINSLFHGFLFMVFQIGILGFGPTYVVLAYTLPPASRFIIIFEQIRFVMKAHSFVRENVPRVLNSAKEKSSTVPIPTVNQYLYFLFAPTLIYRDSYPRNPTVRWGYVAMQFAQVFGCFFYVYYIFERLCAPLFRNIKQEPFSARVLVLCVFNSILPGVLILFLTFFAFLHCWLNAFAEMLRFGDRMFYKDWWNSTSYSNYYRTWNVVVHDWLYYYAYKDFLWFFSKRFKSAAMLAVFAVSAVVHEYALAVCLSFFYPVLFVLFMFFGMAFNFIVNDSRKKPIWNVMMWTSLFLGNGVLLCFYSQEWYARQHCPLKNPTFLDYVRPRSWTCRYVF
# experimentalDetails: Inhibition of African green monkey SOAT1 expressed in CHO cells assessed as decrease in [14C]CE synthesis from [14C]oleic acid after 6 hrs
# Assay type: cell-based
IC50 values by entry
measurementName: IC50

CCC(=O)[C@H](C[C@H](C)C(Cl)(Cl)Cl)NC(=O)[C@H](C[C@H](C)C(Cl)(Cl)Cl)N(C)C = 0.78 µM
CCC(=O)[C@H](C[C@H](C)C(Cl)(Cl)Cl)NC(=O)/C=C/[C@H](C)C(Cl)(Cl)Cl = 1.2 µM
C[C@@H](C[C@H]1C(=O)N(C)[C@@H](C[C@H](C)C(Cl)(Cl)Cl)C(=O)N1C)C(Cl)(Cl)Cl = 5.2 µM

###

# measuredOn: UniProt:O77759
# experimentalDetails: Inhibition of African green monkey SOAT2 expressed in CHO cells assessed as decrease in [14C]CE synthesis from [14C]oleic acid after 6 hrs
# Format: cell-based
pIC50: −log10 of the molar value.
The following compounds are shown together with reported pIC50 values.
measurementName: pIC50

C[C@@H](C[C@H]1C(=O)N(C)[C@@H](C[C@H](C)C(Cl)(Cl)Cl)C(=O)N1C)C(Cl)(Cl)Cl = 5.38
CCC(=O)[C@H](C[C@H](C)C(Cl)(Cl)Cl)NC(=O)[C@H](C[C@H](C)C(Cl)(Cl)Cl)N(C)C = 5.55
CCC(=O)[C@H](C[C@H](C)C(Cl)(Cl)Cl)NC(=O)/C=C/[C@H](C)C(Cl)(Cl)Cl = 5.62

###

# measuredOn: Sterol O-acyltransferase 2 (Chlorocebus aethiops, UniProt O77759)
# Sequence (O77759 whole entry): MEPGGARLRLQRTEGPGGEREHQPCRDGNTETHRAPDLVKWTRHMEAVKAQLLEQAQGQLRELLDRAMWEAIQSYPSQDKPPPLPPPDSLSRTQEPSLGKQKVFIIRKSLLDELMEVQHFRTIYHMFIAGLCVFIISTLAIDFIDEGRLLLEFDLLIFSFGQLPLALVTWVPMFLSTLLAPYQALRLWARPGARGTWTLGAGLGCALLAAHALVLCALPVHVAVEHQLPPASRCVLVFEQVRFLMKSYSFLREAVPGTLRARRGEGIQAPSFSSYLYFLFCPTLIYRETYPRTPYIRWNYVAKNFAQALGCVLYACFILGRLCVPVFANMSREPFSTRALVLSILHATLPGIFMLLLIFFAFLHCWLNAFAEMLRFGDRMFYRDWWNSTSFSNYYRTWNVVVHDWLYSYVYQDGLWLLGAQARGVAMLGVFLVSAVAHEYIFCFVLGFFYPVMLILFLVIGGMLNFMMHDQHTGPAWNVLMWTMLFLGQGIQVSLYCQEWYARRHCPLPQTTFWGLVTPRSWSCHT
# experimentalDetails: Inhibition of African green monkey SOAT2 isolated from CHO cell microsomes assessed as decrease in [14C]CE synthesis from [1-14C]oleoyl-CoA after 5 mins
Listed here: items and their measured IC50.
measurementName: IC50 (µM)

C[C@@H](C[C@H]1C(=O)N(C)[C@@H](C[C@H](C)C(Cl)(Cl)Cl)C(=O)N1C)C(Cl)(Cl)Cl = 5.3
CCC(=O)[C@H](C[C@H](C)C(Cl)(Cl)Cl)NC(=O)[C@H](C[C@H](C)C(Cl)(Cl)Cl)N(C)C = 0.86
CCC(=O)[C@H](C[C@H](C)C(Cl)(Cl)Cl)NC(=O)/C=C/[C@H](C)C(Cl)(Cl)Cl = 3.2
